Kindly state hERG current change (%, negative = inhibition) at 10uM for each of the entries shown.
# assayed.target: human ether-à-go-go-related gene (hERG) potassium channel (human);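 further: peak tail current of the secondary pulse compared with the same well before compound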
# method.summary: primary screen, population patch clamp on CHO cells stably expressing hERG; higher = less effect of the substance
The campaign covered roughly 310,000 compounds. About 14,000 (4.5%) showed an effect of 50% or more. The effect is printed as a negative number. The entries come from a sample that favours strong results as a whole.
One number for each entry, in %.

Quick request: hERG current change (%, negative = inhibition) at 10uM for each listed item, please.
1. COc1cc2ncc(S(=O)(=O)c3ccccc3)c(N3CCC4(CC3)OCCO4)c2cc1OC
2. COc1cc2ncc(S(=O)(=O)c3ccccc3)c(N3CCCC(C)C3)c2cc1OC (centres unmarked)
3. COc1ccc(OCCn2ccnc2C)cc1.O=C(O)C(=O)O
4. COc1ccc2ncc(S(=O)(=O)c3ccccc3)c(N3CCN(c4ccccc4)CC3)c2c1
5. COc1ccc(S(=O)(=O)c2cnc3ccc(OC)cc3c2N2CCC3(CC2)OCCO3)cc1

Reply:
1: -80.8; 2: -7.67; 3: -0.197; 4: -8.4; 5: -28.5

---

# assayed.target: human ether-à-go-go-related gene (hERG) potassium channel (human, UniProt Q12809);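 further: peak tail current of the secondary pulse compared with the same well before compound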
# Sequence (Q12809 whole entry, looked up): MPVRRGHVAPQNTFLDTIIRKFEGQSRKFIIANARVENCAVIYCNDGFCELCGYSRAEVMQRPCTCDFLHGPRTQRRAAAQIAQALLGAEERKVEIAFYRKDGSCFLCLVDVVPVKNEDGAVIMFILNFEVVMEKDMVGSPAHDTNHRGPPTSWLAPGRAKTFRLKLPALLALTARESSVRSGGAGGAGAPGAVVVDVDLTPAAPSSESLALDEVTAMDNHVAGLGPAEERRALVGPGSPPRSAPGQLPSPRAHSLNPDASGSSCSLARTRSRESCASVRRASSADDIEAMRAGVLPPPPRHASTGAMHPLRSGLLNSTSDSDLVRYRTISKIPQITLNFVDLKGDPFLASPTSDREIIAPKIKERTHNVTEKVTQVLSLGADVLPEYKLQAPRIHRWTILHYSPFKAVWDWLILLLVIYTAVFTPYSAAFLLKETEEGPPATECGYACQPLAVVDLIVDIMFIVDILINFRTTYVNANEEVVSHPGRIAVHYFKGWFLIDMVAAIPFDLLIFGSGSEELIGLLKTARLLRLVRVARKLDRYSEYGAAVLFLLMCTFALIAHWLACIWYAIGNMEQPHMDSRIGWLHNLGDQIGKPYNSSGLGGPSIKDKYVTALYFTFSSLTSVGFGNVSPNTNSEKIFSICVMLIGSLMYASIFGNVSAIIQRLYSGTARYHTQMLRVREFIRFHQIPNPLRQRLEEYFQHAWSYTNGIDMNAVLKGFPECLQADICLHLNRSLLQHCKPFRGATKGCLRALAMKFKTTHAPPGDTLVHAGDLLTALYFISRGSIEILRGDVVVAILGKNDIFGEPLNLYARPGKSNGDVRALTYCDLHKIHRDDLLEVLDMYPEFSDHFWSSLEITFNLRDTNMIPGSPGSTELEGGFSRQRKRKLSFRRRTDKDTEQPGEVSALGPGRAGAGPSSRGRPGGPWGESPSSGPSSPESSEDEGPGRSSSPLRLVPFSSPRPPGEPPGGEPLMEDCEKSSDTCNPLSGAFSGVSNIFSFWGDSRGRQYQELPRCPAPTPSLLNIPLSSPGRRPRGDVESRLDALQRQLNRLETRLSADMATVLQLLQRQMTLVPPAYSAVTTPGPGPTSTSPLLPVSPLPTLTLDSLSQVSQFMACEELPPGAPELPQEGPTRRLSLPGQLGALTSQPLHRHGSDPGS
# method.summary: primary screen, population patch clamp on CHO cells stably expressing hERG; higher = less effect of the substance
About 14,000 (4.5%) of roughly 310,000 compounds showed an effect of 50% or more. Effects have a minus sign here. Only a selection was taken, and strong results are over-represented in it overall.
outcome.measure: hERG current change (%, negative = inhibition) at 10uM

- compound: "Cc1ccc(-c2cnco2)cc1"
  test.value: "11.9%"

Quick request: hERG current change (%, negative = inhibition) at 10uM for each listed item, please.
1. Cc1cccc(CCNc2nc3ccc(C)cc3n3cnnc23)c1
2. O=c1c2ccccc2nc(SCc2ccccc2)n1Cc1ccco1
3. CC(C)CC(=O)NC(=S)Nc1nc(-c2cccc3ccccc23)cs1
4. O=C(CN1CCN(c2ccccc2F)CC1)NCc1ccc(Cl)cc1
5. O=C(CN1CCCCCC1)NCc1ccccc1
6. COc1ccc(-n2cc3ccc([N+](=O)[O-])cc3n2)cc1
7. O=c1[nH]cc(S(=O)(=O)N2CCOCC2)c(=O)[nH]1

Reply:
1: 17.3%; 2: 1.3%; 3: 12.7%; 4: -19.1%; 5: 10.1%; 6: 7.2%; 7: -7.17%

---

# assayed.target: human ether-à-go-go-related gene (hERG) potassium channel (human, UniProt Q12809);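 further: peak tail current of the secondary pulse compared with the same well before compound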
# method.summary: primary screen, population patch clamp on CHO cells stably expressing hERG; higher = less effect of the substance
Out of some 310,000 compounds screened, about 14,000 (4.5%) showed an effect of 50% or more. Effects have a minus sign here. Only a selection was taken, and strong results are over-represented in it overall.
outcome.measure: hERG current change (%, negative = inhibition) at 10uM (%)
Answers are plain numbers, in %.

- compound: "O=C(Cc1cccs1)Nc1cccc(C(=O)Nc2ccco2)c1"
  measurement.unit: "%"
  test.value: -37.9
- compound: "Nc1c(C(=O)CSc2nc(-c3ccccc3)cs2)c(=O)[nH]c(=O)n1C1CC1"
  measurement.unit: "%"
  test.value: -7.63

Quick request: hERG current change (%, negative = inhibition) at 10uM for each listed item, please.
1. COc1ccc(C[C@H]2CN3C(=NC[C@@H]3Cc3ccc(O)cc3)N2C[C@H](C)NC(=O)CCC2CCCCC2)cc1
2. COc1ccc(C[C@@H]2CN3C(=NC[C@@H]3C)N2C[C@H](C)NC(=O)CCC2CCCCC2)cc1
3. C#Cc1ccc([C@H]2C=C(C(=O)N3CCOCC3)O[C@@H](OCC)[C@@H]2CCCO)cc1
4. O=C(CSCC(=O)N1CCCc2ccccc21)Nc1nc(-c2ccccc2)cs1
5. CCS(=O)(=O)c1nc(S(=O)(=O)c2ccc(C)cc2)c(NCCCn2ccnc2)s1
6. Cc1ccc(S(=O)(=O)c2nc(NCCCn3ccnc3)sc2Cl)cc1
7. CCCS(=O)(=O)c1nc(S(=O)(=O)c2ccc(C)cc2)c(NCCCn2ccnc2)s1

Reply:
1. -66.1
2. -67.4
3. 6.65
4. 12.4
5. -26.5
6. -78.6
7. -29.6

Quick request: hERG current change (%, negative = inhibition) at 10uM for each listed item, please.
1. O=c1[nH]cnc2c1cnn2Cc1ccccc1Cl
2. O=C(c1cccs1)N(C(=O)c1cccs1)c1ccccn1
3. CC(C)Cc1oc(C(=O)O)cc1CN.Cl
4. CC(C)CNc1nc(S(=O)(=O)c2ccccc2)c(Cl)s1
5. COc1ccc(C[C@@H]2CN3C(=NC[C@@H]3Cc3ccc(O)cc3)N2C[C@H](C)NC(=O)CCC2CCCCC2)cc1
6. O=C(NCC1CCCO1)c1cc(-c2ccncc2)nc2ccc(S(=O)(=O)N3CCOCC3)cc12 (stereo not shown)
7. CC(=O)NC1C(OCc2cccc(Br)c2)OC(COC(C)=O)C(OC(C)=O)C1OC(C)=O (stereo not shown)
8. C=CCc1c(C)nc(-c2ccccc2)nc1N/N=C(\C)c1ccc(N)cc1

Reply:
1: 11.7; 2: 9.68; 3: -4.32; 4: -11.5; 5: -80.6; 6: -24.5; 7: -12.4; 8: -0.357

Quick request: hERG current change (%, negative = inhibition) at 10uM for each listed item, please.
1. Cc1ccc(S(=O)(=O)c2nc(NCCN(C)C)sc2Cl)cc1
2. O=S(=O)(c1ccccc1)c1nc(NCc2ccccc2)sc1Cl

Reply:
[-69.5, -9.88]

Cited source: paper PMC4336329
